Tested on: 323965-272-R-J2-PDC complex spheroid growth, % test/control;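 also: compound exposure lasted 7 days starting three days after spheroid seeding; 100% = DMSO vehicle control wells with viability set relative to vehicle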
assay protocol: Anticancer human tumor 323965-272-R-J2-PDC patient-derived pancreatic carcinoma cell line growth inhibition [Asc]
assay conditions: second compound 0.0949 µM; first compound 1 µM; active compounds read low
Entries whose viability, T/C is below 70% take 1.0; entries at or above 70% take 0.0.

CCN1CCN(Cc2ccc(Nc3ncc(F)c(-c4cc(F)c5nc(C)n(C(C)C)c5c4)n3)nc2)CC1 + CCN1C(C(=O)NC23CCC(C(=O)O)(CC2)CC3)C(c2cccc(Cl)c2F)C2(C(=O)Nc3cc(Cl)ccc32)C12CCCCC2	1.0

Query: Lab note: confirm whether the reported viability, T/C for this compound is below 70%, equality not counting. compound: C#Cc1c(F)ccc2cc(O)cc(-c3ncc4c(N5CC6CCC(C5)N6)nc(OCC56CCCN5CC(F)C6)nc4c3F)c12 (stereo not drawn) + CCN1C(C(=O)NC23CCC(C(=O)O)(CC2)CC3)C(c2cccc(Cl)c2F)C2(C(=O)Nc3cc(Cl)ccc32)C12CCCCC2
Reply: 0.0

Query: Lab note: confirm whether the reported viability, T/C for this compound is below 70%, equality not counting. compound: C=C(F)C(=O)N1CCN(c2nc(OCC3CCCN3C)nc3c2CCN(c2cccc4cccc(Cl)c24)C3)CC1CC#N (stereo not drawn) + CCN1C(C(=O)NC23CCC(C(=O)O)(CC2)CC3)C(c2cccc(Cl)c2F)C2(C(=O)Nc3cc(Cl)ccc32)C12CCCCC2
Reply: 1.0
